# Species: Bos taurus
# protocol: Compound was evaluated for potency against c-AMP phosphodiesterase relative to theophylline
metric.name: Relative potency

>  <compound>
CCC1C(=O)N(CC)c2scc(C)[n+]2C1=O (stereo not drawn)

>  <Relative potency>
0.7

$$$$
>  <compound>
CCc1n[n+]2c(s1)N(CC)C(=O)C(CC)C2=O (stereo not drawn)

>  <Relative potency>
0.1

$$$$
>  <compound>
CCC(C)C1C(=O)N(CC)c2scn[n+]2C1=O (stereo not drawn)

>  <Relative potency>
1.8

$$$$
>  <compound>
CC[N+]1=C2SC=NN2C(=O)CC1=O

>  <Relative potency>
0.5

$$$$
>  <compound>
Cn1c(=O)c2[nH]cnc2n(C)c1=O

>  <Relative potency>
1

$$$$

A: O=C1CC(=O)[n+]2ccsc2N1Cc1cccc(Cl)c1
B: CC[N+]1=C2SC=NN2C(=O)C(Cc2ccccc2)C1=O (stereo not drawn)
C: CCc1n[n+]2c(s1)N(CC)C(=O)C(C)C2=O (stereo not drawn)
Input line: Sort these compounds on Relative potency so the largest reading comes first. # answer = labels listed in requested order
Output line: B, A, C
(B: 7.9, A: 1.3, C: 0.1)
